Entries and their soluble fraction (log2)
Test: soluble fraction after stress (log2 fold change); higher = more stays soluble; pooled small domains, quantitative proteomics
Conditions: stress: pH 4
Give only the figure.

# Query sequence, soluble fraction (log2)
records = [
    ("HMTSKIIIGDSYSKINKLLGEPENMKKRKFLDNEYLMVLYSINKKNYRLYFKDNILFELEDI", -0.582),
    ("HMHPEQTLEKIVDISAELFAKKGYEQTSIQDILDATGLSKGGLYHHFKSKEEILEAVMQKRVQY", -0.647),
    ("HMAYSEEDRRRVREELLTTALKLMSTQGIQHTTVEQVYRSVGISRSFFYAFFPTKEDLIVEAL", -0.0412),
]

Query block: Tell us which soluble fraction (log2) value is on record for "HMSGEMGIIVAKRLPIRSEPDELATRAFVLKAGTRVKIVKHLNGWLEIVHDGKAGYVQDLEVYVRVIG"
Result block: -0.445
